# ASSAYED_SYSTEM: human PPARgamma (Homo sapiens, UniProt P37231)
# Construct: human PPARgamma receptor (amino acids 1152-Y475)
# Sequence (P37231 182-477 isoform P37231-2 limits assumed): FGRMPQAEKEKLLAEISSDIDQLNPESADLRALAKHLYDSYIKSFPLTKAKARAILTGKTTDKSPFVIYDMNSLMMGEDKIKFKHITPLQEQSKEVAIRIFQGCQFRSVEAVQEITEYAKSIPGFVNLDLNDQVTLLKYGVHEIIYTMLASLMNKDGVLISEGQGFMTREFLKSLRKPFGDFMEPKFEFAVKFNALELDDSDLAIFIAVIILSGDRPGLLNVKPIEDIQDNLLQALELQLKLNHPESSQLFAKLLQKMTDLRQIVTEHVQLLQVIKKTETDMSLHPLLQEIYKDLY
# METHOD_NOTES: Cellular PPARgamma assay (transiently transfected HEK cells, luciferase reporter)
# CONDITIONS_USED: GAL4-humanPPARgammaLBD, firefly/Renilla luciferase ratio, 48 h
Recorded EC50, one value per entry.
EXPERIMENTAL_READOUT: EC50

>  <COMPOUND>
COc1cccc(-c2nc(COC[C@@H]3CCC[C@H](COC(C)(C)C(=O)O)C3)c(C(C)C)o2)c1

>  <EXPERIMENTAL_READOUT>
EC50

>  <TEST_VALUE>
672 nM

$$$$
>  <COMPOUND>
CC(C)c1oc(-c2ccc3ccccc3c2)nc1COC[C@H]1CCC[C@@H](COC(C)(C)C(=O)O)C1

>  <EXPERIMENTAL_READOUT>
EC50

>  <TEST_VALUE>
127 nM

$$$$
>  <COMPOUND>
CC(C)c1oc(-c2cccc(C(F)(F)F)c2)nc1COC[C@@H]1CCC[C@H](COC(C)(C)C(=O)O)C1

>  <EXPERIMENTAL_READOUT>
EC50

>  <TEST_VALUE>
800 nM

$$$$
>  <COMPOUND>
Cc1ccc(-c2nc(COC[C@@H]3CCC[C@H](COC(C)(C)C(=O)O)C3)c(C(C)C)o2)cc1C

>  <EXPERIMENTAL_READOUT>
EC50

>  <TEST_VALUE>
1500 nM

$$$$
>  <COMPOUND>
Cc1oc(-c2ccccc2)nc1COCC1CCCC(COC(C)(C)C(=O)O)C1 (stereo not shown)

>  <EXPERIMENTAL_READOUT>
EC50

>  <TEST_VALUE>
2590 nM

$$$$
>  <COMPOUND>
CCc1oc(-c2cccc(C(F)(F)F)c2)nc1COC[C@@H]1CCC[C@H](COC(C)(C)C(=O)O)C1

>  <EXPERIMENTAL_READOUT>
EC50

>  <TEST_VALUE>
232 nM

$$$$
>  <COMPOUND>
CC(C)c1oc(-c2cccc(C(F)(F)F)c2)nc1COC[C@H]1CCC[C@@H](COC(C)(C)C(=O)O)C1

>  <EXPERIMENTAL_READOUT>
EC50

>  <TEST_VALUE>
199 nM

$$$$

// provenance: patent US7538131B2
